Exercise: for every item that follows, state its recorded kinact/KI.
Target: Human Polymorphonuclear Leukocyte Elastase (Homo sapiens, UniProt P08246)
Construct: Crude extract of human polymorphonuclear leukocytes (PMN) containing elastase activity; from tissue; host or cells: human polymorphonuclear leukocytes (crude extract)
Sequence (P08246 30-267): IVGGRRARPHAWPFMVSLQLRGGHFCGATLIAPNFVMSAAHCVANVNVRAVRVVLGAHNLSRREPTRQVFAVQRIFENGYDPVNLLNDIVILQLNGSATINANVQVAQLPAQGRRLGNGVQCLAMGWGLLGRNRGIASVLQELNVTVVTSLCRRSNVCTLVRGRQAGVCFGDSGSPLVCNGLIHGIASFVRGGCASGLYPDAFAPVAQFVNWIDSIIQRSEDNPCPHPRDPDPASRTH
Assay: Inhibition of human polymorphonuclear leukocyte elastase via hydrolysis of Boc-AAPAN or Boc-AAPVN
Format: biochemical
Settings: second order rate constant for inactivation of the enzyme; crude human PMN extract, pH 7.5; to the nearest thousand; read-out: Kobs/[I]
Reply with just the number (in M⁻¹ s⁻¹).

Notebook: CCC[C@@H](NC(=O)C1C(=O)C(CC)(CC)[C@@H]1Oc1ccc(C(=O)N2CCN(Cc3ccccc3)CC2)cc1)c1ccc(C)cc1 (stereo partly drawn) , kinact/KI read as 5.17e+06

Notebook: CCC[C@@H](NC(=O)C1C(=O)C(CC)(CC)[C@@H]1Oc1ccc(C(=O)N2CCN(C)CC2)cc1)c1ccc(C)cc1 (stereo partly drawn) , kinact/KI read as 1.7e+06

Record CCC[C@@H](NC(=O)C1C(=O)C(CC)(CC)[C@@H]1Oc1ccc(C(=O)N2CCN(CC)CC2)cc1)c1ccc(C)cc1 (stereo partly drawn) . Reported kinact/KI: 2.32e+06

CCC[C@@H](NC(=O)C1C(=O)C(CC)(CC)[C@@H]1Oc1ccc(C(=O)N2CCN(c3ccccc3)CC2)cc1)c1ccc(C)cc1 (stereo partly drawn) yielded kinact/KI of 5.28e+06

The reported value for CCC[C@@H](NC(=O)C1C(=O)C(CC)(CC)[C@@H]1Oc1ccc(C(=O)N2CCN(c3ccc(F)cc3)CC2)cc1)c1ccc(C)cc1 (stereo partly drawn) in terms of kinact/KI is 7.49e+06

Lab note: CCC[C@@H](NC(=O)C1C(=O)C(CC)(CC)[C@@H]1Oc1ccc(C(=O)N2CCNCC2)cc1)c1ccc(C)cc1 (stereo partly drawn) gave kinact/KI of 1.1e+06

Consider CCC[C@@H](NC(=O)C1C(=O)C(CC)(CC)[C@@H]1Oc1ccc(C(=O)N2CCN(C(C)C)CC2)cc1)c1ccc(C)cc1 (stereo partly drawn) . Its measured kinact/KI is 2.39e+06

CCC[C@@H](NC(=O)C1C(=O)C(CC)(CC)[C@@H]1Oc1ccc(C(=O)N2CCN(CCC)CC2)cc1)c1ccc(C)cc1 (stereo partly drawn) yielded kinact/KI of 1.77e+06

Form: compound = CCC[C@@H](NC(=O)C1C(=O)C(CC)(CC)[C@@H]1Oc1ccc(C(=O)N2CCN(C3CC3)CC2)cc1)c1ccc(C)cc1 (stereo partly drawn) ; kinact/KI = 3.59e+06

# compound CCC[C@@H](NC(=O)C1C(=O)C(CC)(CC)[C@@H]1Oc1ccc(C(=O)N2CCN(c3ncccn3)CC2)cc1)c1ccc(C)cc1 (stereo partly drawn) ; its kinact/KI = 2.14e+06

Memo: CCC[C@@H](NC(=O)C1C(=O)C(CC)(CC)[C@@H]1Oc1ccc(C(=O)N2CCN(CC(C)C)CC2)cc1)c1ccc(C)cc1 (stereo partly drawn) , reported kinact/KI: 2.48e+06

The compound listed as CCC[C@@H](NC(=O)C1C(=O)C(CC)(CC)[C@@H]1Oc1ccc(C(=O)N2CCN(c3cccc(Cl)c3)CC2)cc1)c1ccc(C)cc1 (stereo partly drawn) has a reported kinact/KI of 2.45e+06

Values were extracted from patent US8283344B2.
